Catalogue of GI50 values
test system: OVCAR-3; test: Cytotoxicity against human OVCAR3 cells after 48 hrs by SRB assay; assay type: functional; conditions: OVCAR-3, 48 h
MEASURE NAME: GI50

[
  {
    "CPD SMILES": "O=C1c2ccccc2C(=O)c2c1cc(SCc1ccccc1)c1nsnc21",
    "TARGET ENTITY": "OVCAR-3",
    "EXPERIMENTAL VALUE": "8160 nM"
  },
  {
    "CPD SMILES": "CC(C)Sc1cc2c(c3nsnc13)C(=O)c1ccccc1C2=O",
    "TARGET ENTITY": "OVCAR-3",
    "EXPERIMENTAL VALUE": "250 nM"
  },
  {
    "CPD SMILES": "O=C1c2ccccc2C(=O)c2c1cc(Sc1cccc(Cl)c1)c1nsnc21",
    "TARGET ENTITY": "OVCAR-3",
    "EXPERIMENTAL VALUE": "450 nM"
  },
  {
    "CPD SMILES": "O=C1c2ccccc2C(=O)c2c1cc(Sc1ccccc1Br)c1nsnc21",
    "TARGET ENTITY": "OVCAR-3",
    "EXPERIMENTAL VALUE": "10200 nM"
  },
  {
    "CPD SMILES": "O=C1c2ccccc2C(=O)c2c1cc(Sc1ccc(F)cc1F)c1nsnc21",
    "TARGET ENTITY": "OVCAR-3",
    "EXPERIMENTAL VALUE": "1820 nM"
  }
]

----------
The following compounds are shown together with reported CC50 values.
system: LOX IMVI; assay: Cytotoxicity against human LOXIMVI cells after 48 hrs by SRB assay; format: functional; settings: read-out: LC50 (the source's name)

[
  {
    "CPD SMILES": "O=C1c2ccccc2C(=O)c2c1cc(Sc1ccccc1Br)c1nsnc21",
    "TARGET ENTITY": "LOX IMVI",
    "MODIFIER": ">",
    "CC50 [µM]": 50
  },
  {
    "CPD SMILES": "O=C1c2ccccc2C(=O)c2c1cc(Sc1ccc(F)cc1F)c1nsnc21",
    "TARGET ENTITY": "LOX IMVI",
    "MODIFIER": "=",
    "CC50 [µM]": 5.77
  },
  {
    "CPD SMILES": "O=C1c2ccccc2C(=O)c2c1cc(Sc1cccc(Cl)c1)c1nsnc21",
    "TARGET ENTITY": "LOX IMVI",
    "MODIFIER": "=",
    "CC50 [µM]": 5.73
  },
  {
    "CPD SMILES": "O=C1c2ccccc2C(=O)c2c1cc(SCc1ccccc1)c1nsnc21",
    "TARGET ENTITY": "LOX IMVI",
    "MODIFIER": "=",
    "CC50 [µM]": 29.1
  },
  {
    "CPD SMILES": "CC(C)Sc1cc2c(c3nsnc13)C(=O)c1ccccc1C2=O",
    "TARGET ENTITY": "LOX IMVI",
    "MODIFIER": "=",
    "CC50 [µM]": 4.73
  }
]

----------
test system: Malme-3M; assay: Cytotoxicity against human MALME-3M cells after 48 hrs by SRB assay; assay type: functional
compounds and their reported GI50

[
  {
    "CPD SMILES": "O=C1c2ccccc2C(=O)c2c1cc(Sc1cccc(Cl)c1)c1nsnc21",
    "GI50 (µM)": 1.98
  },
  {
    "CPD SMILES": "O=C1c2ccccc2C(=O)c2c1cc(Sc1ccccc1Br)c1nsnc21",
    "GI50 (µM)": 16.8
  },
  {
    "CPD SMILES": "O=C1c2ccccc2C(=O)c2c1cc(Sc1ccc(F)cc1F)c1nsnc21",
    "GI50 (µM)": 3.26
  },
  {
    "CPD SMILES": "CC(C)Sc1cc2c(c3nsnc13)C(=O)c1ccccc1C2=O",
    "GI50 (µM)": 1.12
  },
  {
    "CPD SMILES": "O=C1c2ccccc2C(=O)c2c1cc(SCc1ccccc1)c1nsnc21",
    "GI50 (µM)": 11
  }
]

----------
Below, each entry is listed alongside its reported log10 GI50.
system: OVCAR-4; assay: Cytotoxicity against human OVCAR4 cells after 48 hrs by SRB assay; type: functional; conditions: OVCAR-4, 48 h
MEASURE NAME: log10 GI50 (log10 of the value in nM)

[
  {
    "CPD SMILES": "O=C1c2ccccc2C(=O)c2c1cc(Sc1cccc(Cl)c1)c1nsnc21",
    "log10 GI50": 2.49
  },
  {
    "CPD SMILES": "O=C1c2ccccc2C(=O)c2c1cc(Sc1ccc(F)cc1F)c1nsnc21",
    "log10 GI50": 2.53
  },
  {
    "CPD SMILES": "O=C1c2ccccc2C(=O)c2c1cc(Sc1ccccc1Br)c1nsnc21",
    "log10 GI50": 3.44
  },
  {
    "CPD SMILES": "CC(C)Sc1cc2c(c3nsnc13)C(=O)c1ccccc1C2=O",
    "log10 GI50": 2.56
  },
  {
    "CPD SMILES": "O=C1c2ccccc2C(=O)c2c1cc(SCc1ccccc1)c1nsnc21",
    "log10 GI50": 3.78
  }
]

----------
Measured log10(GI50) values are reported for all entries that follow.
tested on: MDA-MB-435; assay: Cytotoxicity against human MDA-MB-435 cells after 48 hrs by SRB assay; format: functional; details: MDA-MB-435, 48 h
MEASURE NAME: log10(GI50) (log10 of the value in µM)

[
  {
    "CPD SMILES": "O=C1c2ccccc2C(=O)c2c1cc(Sc1cccc(Cl)c1)c1nsnc21",
    "log10(GI50)": 0.18
  },
  {
    "CPD SMILES": "CC(C)Sc1cc2c(c3nsnc13)C(=O)c1ccccc1C2=O",
    "log10(GI50)": -0.70
  },
  {
    "CPD SMILES": "O=C1c2ccccc2C(=O)c2c1cc(Sc1ccc(F)cc1F)c1nsnc21",
    "log10(GI50)": 0.29
  },
  {
    "CPD SMILES": "O=C1c2ccccc2C(=O)c2c1cc(SCc1ccccc1)c1nsnc21",
    "log10(GI50)": 0.96
  },
  {
    "CPD SMILES": "O=C1c2ccccc2C(=O)c2c1cc(Sc1ccccc1Br)c1nsnc21",
    "log10(GI50)": 0.97
  }
]

----------
tested on: SF-268; assay: Cytotoxicity against human SF268 cells assessed as cell growth at 10 uM after 48 hrs by SRB assay relative to control; type: functional; settings: SF-268, 48 h, read-out: Activity
Entry flag: 1 (yes) if growth at 10 µM reaches 60%; 0 (no) if it does not.

[
  {
    "CPD SMILES": "Cc1cc(C)cc(Sc2cc3c(c4nsnc24)C(=O)c2ccccc2C3=O)c1",
    "LABEL VALUE": "1 (yes)"
  },
  {
    "CPD SMILES": "O=C1c2ccccc2C(=O)c2c1cc(SCc1ccccc1)c1nsnc21",
    "LABEL VALUE": "0 (no)"
  },
  {
    "CPD SMILES": "CC(C)Sc1cc2c(c3nsnc13)C(=O)c1ccccc1C2=O",
    "LABEL VALUE": "0 (no)"
  },
  {
    "CPD SMILES": "Cc1cccc(C)c1Sc1cc2c(c3nsnc13)C(=O)c1ccccc1C2=O",
    "LABEL VALUE": "1 (yes)"
  },
  {
    "CPD SMILES": "O=C1c2ccccc2C(=O)c2c1cc(Sc1ccc(F)cc1F)c1nsnc21",
    "LABEL VALUE": "0 (no)"
  },
  {
    "CPD SMILES": "O=C1c2ccccc2C(=O)c2c1ccc1nsnc21",
    "LABEL VALUE": "0 (no)"
  }
]

----------
growth at 10 µM values by entry
system: OVCAR-3; assay: Cytotoxicity against human OVCAR3 cells assessed as cell growth at 10 uM after 48 hrs by SRB assay relative to control; format: functional; conditions: OVCAR-3, 48 h, read-out: Activity

[
  {
    "CPD SMILES": "O=C1c2ccccc2C(=O)c2c1cc(Cl)c1nsnc21",
    "growth at 10 µM [%]": 49.9
  },
  {
    "CPD SMILES": "O=C1c2ccccc2C(=O)c2c1cc(Sc1ccc(Cl)cc1)c1nsnc21",
    "growth at 10 µM [%]": 119
  },
  {
    "CPD SMILES": "O=C1c2ccccc2C(=O)c2c1ccc1nsnc21",
    "growth at 10 µM [%]": -15.5
  },
  {
    "CPD SMILES": "Cc1cccc(C)c1Sc1cc2c(c3nsnc13)C(=O)c1ccccc1C2=O",
    "growth at 10 µM [%]": 1
  },
  {
    "CPD SMILES": "COc1cccc(Sc2cc3c(c4nsnc24)C(=O)c2ccccc2C3=O)c1",
    "growth at 10 µM [%]": 85.8
  },
  {
    "CPD SMILES": "COc1ccc(Sc2cc3c(c4nsnc24)C(=O)c2ccccc2C3=O)cc1",
    "growth at 10 µM [%]": 110
  },
  {
    "CPD SMILES": "O=C1c2ccccc2C(=O)c2c1cc(SCc1ccc(Cl)cc1)c1nsnc21",
    "growth at 10 µM [%]": 113
  },
  {
    "CPD SMILES": "Cc1ccc(Sc2cc3c(c4nsnc24)C(=O)c2ccccc2C3=O)c(C)c1",
    "growth at 10 µM [%]": 105
  },
  {
    "CPD SMILES": "Cc1ccccc1Sc1cc2c(c3nsnc13)C(=O)c1ccccc1C2=O",
    "growth at 10 µM [%]": 5.3
  },
  {
    "CPD SMILES": "O=C1c2ccccc2C(=O)c2c1cc(Sc1cc(Cl)ccc1Cl)c1nsnc21",
    "growth at 10 µM [%]": 99.4
  },
  {
    "CPD SMILES": "O=C1c2ccccc2C(=O)c2c1cc(SCc1ccccc1)c1nsnc21",
    "growth at 10 µM [%]": 25.3
  }
]

Recorded values, source ChEMBL document CHEMBL3621107.
